Origin of values: paper PMC11054274

test: Cytotoxicity assay on macrophages (resazurin); assay type: cell-based, murine; details: mouse, J774 macrophages, Table S2; 24 h exposure; read-out: Toxicity against J774 macrophages CC50
Threshold-based label: CC50 at 24 h under 400 µM gives rule met, CC50 at 24 h not under 400 µM gives rule not met.

Does O=C(O)CNC(=O)c1c(-c2ccc(F)cc2)[n+]([O-])c2ccccc2[n+]1[O-] [Compound 5d] have CC50 at 24 h strictly under 400 µM? rule not met

is_below(CC50 at 24 h, 400 µM) for Cc1ccc2c(c1)[n+]([O-])c(-c1ccc(F)cc1)c(C(=O)NCC(=O)O)[n+]2[O-] [Compound 5m] ? rule not met

Quick check: CC50 at 24 h of CCCCCCCCCCCCCCCCOP(=O)([O-])OCC[N+](C)(C)C [Miltefosine, reference compound] under 400 µM? rule met

Find out if reported CC50 at 24 h for COc1ccc2c(c1)[n+]([O-])c(-c1ccccc1)c(C(=O)NCC(=O)O)[n+]2[O-] [Compound 5f] is less than 400 µM rule not met

# TODO verify CC50 at 24 h < 400 µM strictly for this molecule: COc1ccc2c(c1)[n+]([O-])c(-c1ccc(C)cc1)c(C(=O)O)[n+]2[O-] [Compound 6] rule not met

Lab log: compare recorded CC50 at 24 h with 400 µM; is it strictly lower for COc1ccc2c(c1)[n+]([O-])c(-c1ccc(C(F)(F)F)cc1)c(C(=O)NCC(=O)O)[n+]2[O-] [Compound 5h] ? rule not met

Then there is this molecule:
I wonder whether COC(=O)CNC(=O)c1c(-c2ccc(C)cc2)[n+]([O-])c2cc(OC)ccc2[n+]1[O-] [Compound 4j] has CC50 at 24 h below 400 µM. Can you tell? rule met

---

system: Leishmania amazonensis promastigotes; experiment: Promastigote susceptibility assay (resazurin), L. amazonensis; assay type: cell-based; conditions: SI = CC50 (J774 macrophages)/IC50
Measured quantity: L. amazonensis promastigote selectivity index (SI)
Number only, please.

L. amazonensis promastigote selectivity index (SI) for COC(=O)CNC(=O)c1c(-c2ccc(C)cc2)[n+]([O-])c2cc(OC)ccc2[n+]1[O-] ? 2.9

Continue with the compound presented below.
L. amazonensis promastigote selectivity index (SI) for COc1ccc2c(c1)[n+]([O-])c(-c1ccc(C)cc1)c(C(=O)O)[n+]2[O-] ? 20.7
